Provide the reported self-cleavage of each item.
B1: HDV Ribozyme (parent)
chain: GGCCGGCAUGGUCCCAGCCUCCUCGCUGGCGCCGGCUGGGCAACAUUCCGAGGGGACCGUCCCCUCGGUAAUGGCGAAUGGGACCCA

variants of: B1; experiment: self-cleavage, relative activity (ratio to wild type); higher = more cleavage; co-transcriptional
Reply: number alone, nothing else.

Entry C7G A77G has what self-cleavage?
0.0755

Entry A8G C32A has what self-cleavage?
0.0852

Entry C26A G31A has what self-cleavage?
0.818

Entry G38A U65C has what self-cleavage?
0.117

Entry G38C G53A has what self-cleavage?
0.313

Entry C57A U72A has what self-cleavage?
0.674

Entry G5A C44A has what self-cleavage?
0

Entry C4G C21G has what self-cleavage?
0

Entry A16U C48U has what self-cleavage?
1.07

Entry U37A C84U has what self-cleavage?
0.116

Entry U9C U23G has what self-cleavage?
0.831

Entry C36U C41G has what self-cleavage?
0.45

Entry G5A G38U has what self-cleavage?
0.0804

Entry C33U C57U has what self-cleavage?
0.719

Entry C13A A42G has what self-cleavage?
0.142

Entry A42G A87G has what self-cleavage?
0.602

Entry C48U G76U has what self-cleavage?
1.15

Entry G11A C57G has what self-cleavage?
0.432

Entry G5A G17C has what self-cleavage?
0.0594

Entry C18G G50A has what self-cleavage?
0.138

Entry A8U G35C has what self-cleavage?
0.0639

Entry U27A C66U has what self-cleavage?
0.789

Origin of measurements: the RNAGym collection of RNA variant scans (doi:10.7554/elife.80360)
